Numbers sourced from PubChem BioAssay.

- PROTOCOL DETAILS: S. cerevisiae growth modulation with rapamycin, primary screen, strain BY4716, OD600, 96 h (AID 1091); further: test concentration not given here
- CONDITION SUMMARY: higher = more signal, called active from +8 up or from −8 down
Measured z-score, listed per entry.
READOUT TYPE: z-score

| COMPOUND | READOUT TYPE | NUMERIC VALUE |
| --- | --- | --- |
| O=C1OCC=C[C@H]2OC34C=CCN(Cc5ccccc5)C(=O)[C@H]3N(CCCCCCO)C(=O)[C@@H]4[C@@H]12 (some centres undefined) | z-score | -1.53 |
| COC(=O)[C@@]1(Cc2ccc(OC)cc2)[C@H]2c3cc(C(=O)N(C)C)n(C[C@H](O)CO)c3C[C@H]2CN1C(=O)c1ccccc1 | z-score | 0.878 |
| COc1ccc(-c2nc(-c3ccccc3)c3c(c2C)CO[Si]3(C(C)C)C(C)C)cn1 | z-score | -0.0892 |
| COCCOC(=O)N1C(=O)[C@@]2(c3cc(C#CCC(C(=O)OC)C(=O)OC)ccc31)[C@H](C(=O)N1CCc3cc(OC)c(OC)cc3C1)[C@H]1C(=O)O[C@H](c3ccccc3)[C@H](c3ccccc3)N1[C@@H]2c1ccc(OCCO)cc1 | z-score | 4.23 |
| O=C1OCC=C[C@H]2OC34C=CCN(Cn5nnc6ccccc65)C(=O)[C@H]3N(CCCO)C(=O)[C@@H]4[C@@H]12 (some centres undefined) | z-score | -0.437 |
| O=C1c2ccccc2[C@](Cc2ccccc2I)(C(=O)NCC(F)(F)F)[C@H](c2ccc(CO)cc2)N1C1CCCCC1 | z-score | -0.0447 |
| COCCOC(=O)N1C(=O)[C@@]2(c3cc(C#CC4=CCCCC4)ccc31)[C@H](c1ccc(O)cc1)N1[C@H](c3ccccc3)[C@H](c3ccccc3)OC(=O)[C@H]1[C@@H]2C(=O)N1CCN(c2ncccn2)CC1 | z-score | 0.58 |
| COC(=O)CCCCCCC(=O)Nc1ccc(NC(=O)CCCC[P+](c2ccccc2)(c2ccccc2)c2ccccc2)cc1 | z-score | -0.786 |
| [N-]=[N+]=NCc1ccccc1C[C@@]1(C(=O)NCc2ccccc2)N=C(c2ccc(OCCCO)cc2)O[C@@H]1c1ccccc1N=[N+]=[N-] | z-score | 6.91 |
| CCCCC(=C=CC[C@@H](O)c1ccccc1OCCO)C[C@@H](O)COCc1ccccc1 | z-score | -1.26 |
| O=C(NCC(F)(F)F)[C@@H]1c2ccccc2C(=O)N(Cc2cc(F)cc(C(F)(F)F)c2)[C@H]1c1ccc(CO)cc1 | z-score | 0.29 |
| N#Cc1ccc(C(O)C2C=CC3C(=O)N(c4ccccc4)C(=O)C3N2Nc2ccccc2)cc1 (centres undefined) | z-score | -0.248 |
| CN(C)CCCNC(=O)[C@@H]1c2ccccc2C(=O)N(Cc2ccccc2Cl)[C@H]1c1ccc(CO)cc1 | z-score | -1.04 |
| COc1ccc([Si](C)(C)[C@H]2[C@H](CC(=O)N(CCO)Cc3ccccc3)O[C@@]3(C(=O)N(Cc4cccc(N5CCOC5=O)c4)c4ccccc43)[C@@H]2C)cc1 | z-score | 3.02 |
